The following are reported IC50 results, target or system Neuraminidase (Influenza A virus (A/Memphis/1/1971(H3N2)), UniProt P03471).
One number for each entry, in nM.

// each listed compound needs a value for IC50
1. CCC(CC)[C@H](NC(C)=O)[C@@H]1[C@H](OC(=O)NCCCOC(=O)/C=C/c2ccc(O)c(O)c2)[C@@H](C(=O)O)C[C@H]1NC(=N)N
2. CCC(CC)[C@H](NC(C)=O)[C@@H]1[C@H](O)[C@@H](C(=O)O)C[C@H]1NC(=N)N [PERAMIVIR ANHYDROUS]

27.2
2

###

# study target: Neuraminidase (Influenza A virus (strain A/Wilson-Smith/1933 H1N1) (Influenza A virus(strain A/WS/1933 H1N1)), UniProt P03470)
# Sequence (P03470 whole entry): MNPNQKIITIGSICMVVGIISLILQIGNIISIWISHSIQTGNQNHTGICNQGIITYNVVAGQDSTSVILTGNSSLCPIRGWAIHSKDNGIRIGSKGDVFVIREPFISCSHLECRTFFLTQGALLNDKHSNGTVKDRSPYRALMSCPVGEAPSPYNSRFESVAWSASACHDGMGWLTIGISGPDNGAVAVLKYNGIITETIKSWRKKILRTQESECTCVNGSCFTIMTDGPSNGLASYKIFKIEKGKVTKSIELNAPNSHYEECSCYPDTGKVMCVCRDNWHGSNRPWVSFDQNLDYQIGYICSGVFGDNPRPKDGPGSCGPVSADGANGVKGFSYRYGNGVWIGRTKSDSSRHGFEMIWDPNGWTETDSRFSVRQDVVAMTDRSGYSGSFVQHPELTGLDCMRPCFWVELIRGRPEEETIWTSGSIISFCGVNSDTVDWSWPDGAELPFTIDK
Give measured pIC50 for each item. Keep answers brief.
Numbers only, as −log10 of the molar value.

Would you please look over these solved cases?
1. CCC(CC)[C@H](NC(C)=O)[C@@H]1[C@H](OC(=O)NCCCNC(=O)/C=C/c2ccc(O)c(O)c2)[C@@H](C(=O)O)C[C@H]1NC(=N)N	8.74
2. CCC(CC)[C@H](NC(C)=O)[C@@H]1[C@H](O)[C@@H](C(=O)O)C[C@H]1NC(=N)N [PERAMIVIR ANHYDROUS]	9.40

We next turn to a different molecule, shown below.
Which pIC50 value belongs to CCC(CC)[C@H](NC(C)=O)[C@@H]1[C@H](OC(=O)NCCCOC(=O)/C=C/c2ccc(O)c(O)c2)[C@@H](C(=O)O)C[C@H]1NC(=N)N ?
9.05
